tested on: wt human LRRK2 (Homo sapiens, UniProt Q5S007)
Construct: wt human LRRK2, catalytic site, catalytic site (ThermoFisher/USA)
Sequence (Q5S007 970-2527 limits assumed): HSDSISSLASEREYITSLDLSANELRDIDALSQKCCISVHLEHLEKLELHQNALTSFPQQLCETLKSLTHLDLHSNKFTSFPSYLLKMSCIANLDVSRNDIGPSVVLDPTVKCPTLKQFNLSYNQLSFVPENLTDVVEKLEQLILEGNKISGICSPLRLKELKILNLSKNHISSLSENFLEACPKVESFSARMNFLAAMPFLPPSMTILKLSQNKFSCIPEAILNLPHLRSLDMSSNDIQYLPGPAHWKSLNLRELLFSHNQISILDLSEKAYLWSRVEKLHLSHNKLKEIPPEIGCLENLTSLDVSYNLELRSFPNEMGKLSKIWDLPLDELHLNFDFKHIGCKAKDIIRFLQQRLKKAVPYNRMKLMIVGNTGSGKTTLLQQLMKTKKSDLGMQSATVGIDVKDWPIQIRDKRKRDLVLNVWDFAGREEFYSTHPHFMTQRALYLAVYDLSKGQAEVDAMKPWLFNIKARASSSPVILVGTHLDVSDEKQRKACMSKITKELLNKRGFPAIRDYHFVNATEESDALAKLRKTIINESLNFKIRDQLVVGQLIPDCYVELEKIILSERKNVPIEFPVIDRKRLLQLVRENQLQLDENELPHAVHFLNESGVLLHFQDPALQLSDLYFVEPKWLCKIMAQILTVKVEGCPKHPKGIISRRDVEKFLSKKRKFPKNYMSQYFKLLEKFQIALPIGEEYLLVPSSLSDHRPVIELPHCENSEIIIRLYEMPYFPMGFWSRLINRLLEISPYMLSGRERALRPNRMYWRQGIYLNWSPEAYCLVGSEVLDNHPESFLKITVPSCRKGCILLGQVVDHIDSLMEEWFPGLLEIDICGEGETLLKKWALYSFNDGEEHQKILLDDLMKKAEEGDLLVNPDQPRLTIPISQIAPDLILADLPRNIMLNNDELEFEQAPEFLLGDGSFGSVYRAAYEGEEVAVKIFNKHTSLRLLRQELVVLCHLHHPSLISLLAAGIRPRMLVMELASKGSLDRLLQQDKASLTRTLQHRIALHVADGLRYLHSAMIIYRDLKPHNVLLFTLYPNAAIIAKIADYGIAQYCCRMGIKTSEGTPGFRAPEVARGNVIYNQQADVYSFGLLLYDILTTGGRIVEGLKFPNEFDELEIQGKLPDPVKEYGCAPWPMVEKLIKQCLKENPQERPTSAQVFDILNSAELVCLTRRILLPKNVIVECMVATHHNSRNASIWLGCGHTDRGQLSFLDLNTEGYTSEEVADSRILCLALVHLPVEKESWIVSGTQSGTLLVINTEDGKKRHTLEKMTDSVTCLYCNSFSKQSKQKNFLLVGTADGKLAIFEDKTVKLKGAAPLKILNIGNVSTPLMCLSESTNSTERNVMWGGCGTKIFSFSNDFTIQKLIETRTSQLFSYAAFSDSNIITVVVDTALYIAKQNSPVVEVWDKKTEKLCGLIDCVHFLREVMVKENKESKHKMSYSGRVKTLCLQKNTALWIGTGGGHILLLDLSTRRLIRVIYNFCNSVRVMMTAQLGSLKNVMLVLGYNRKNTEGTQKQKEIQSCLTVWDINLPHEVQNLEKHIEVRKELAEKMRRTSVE
measurement notes: TR-FRET LanthaScreen Tb Kinase Activity Assay, inhibition of LRRK2 kinase
cond: 2 nM wt human LRRK2, 400 nM fluorescein-ERM (LRRKtide) peptide, 38 µM ATP, 15 min pre-incubation, 120 min at room temperature
Method: In Table 2, activity is provided as the following: “+++”=IC50 less than 50 nM; “++”=IC50 between 50 nM and 200 nM; “+”=IC50> or =200 nM. […] The protocol for basic TR-FRET LanthaScreen Tb Kinase Activity Assay inhibitor studies were as follows. […] Then, after 60 min minutes incubation at room temperature plates were read in Envision. […] Detection step: Addition of 10 μL EDTA & antibody, read plate after 60 minutes. […]
pIC50: −log10 of the molar value.
reported metric: pIC50

Completed entries (count: 2):
CN1CCN(c2ccc3c(c2)-n2ncc(Cl)c2N=C(c2c(F)cccc2F)N3)CC1; > 7.30
Cn1cc(-c2ccc3c(c2)-n2ncc(Cl)c2N=C(c2c(F)cccc2F)N3)cn1; > 7.30

[Q] Could you please provide reported pIC50 for Fc1cccc(F)c1C1=Nc2c(Cl)cnn2-c2cc(N3C4COCC3C4)ccc2N1 ? Thanks!
[A] > 7.30

[Q] Could you please provide reported pIC50 for Cc1cnn2c1N=C(c1c(F)cccc1F)Nc1cnc(N3CCOCC3)cc1-2 ? Thanks!
[A] > 7.30

[Q] Could you please provide reported pIC50 for COC(=O)c1cnc2c(c1)-n1ncc(Cl)c1N=C(c1c(F)cccc1F)N2 ? Thanks!
[A] > 7.30

[Q] Could you please provide reported pIC50 for O=C(NC1COC1)c1ccc2c(c1)-n1ncc(Cl)c1N=C(c1c(F)cccc1F)N2 ? Thanks!
[A] > 7.30

[Q] Could you please provide reported pIC50 for Fc1cccc(F)c1C1=Nc2c(Cl)cnn2-c2cc(N3C[C@H]4CC[C@@H]3CO4)ccc2N1 ? Thanks!
[A] > 7.30

[Q] Could you please provide reported pIC50 for Fc1cccc(F)c1C1=Nc2c(Cl)cnn2-c2cc(N3CC4CCC(C3)O4)ncc2N1 ? Thanks!
[A] > 7.30

[Q] Could you please provide reported pIC50 for Fc1cccc(F)c1C1=Nc2c(Cl)cnn2-c2cc(N3C[C@H]4CC[C@@H](C3)O4)ccc2N1 ? Thanks!
[A] > 7.30
